Provide the reported log10(CC50 at 120 h) of each item.
assay_method_text: Cytotoxicity against human MT4 cells assessed as reduction in cell viability incubated for 5 days by MTT assay
Format: cell-based
measurement_setup: time 5 day
Scale type: logarithmic (base 10). Underlying CC50 at 120 h unit: µM.

**Q:** Respond only with log10(CC50 at 120 h) recorded for Cc1cc(C#N)cc(C)c1Oc1ccnc(NC2CCN(CC(=O)N3CCOCC3)CC2)n1
**A:** 2.16

**Q:** Respond only with log10(CC50 at 120 h) recorded for Cc1cc(C#N)cc(C)c1Oc1nc(NC2CCN(CC(=O)N3CCOCC3)CC2)nc2ccccc12
**A:** 1.63

**Q:** Respond only with log10(CC50 at 120 h) recorded for Cc1cc(C#N)cc(C)c1Oc1ccnc(NC2CCN(CCN3CCOCC3)CC2)n1
**A:** 2.39

**Q:** Respond only with log10(CC50 at 120 h) recorded for Cc1cc(C#N)cc(C)c1Oc1nc(NC2CCN(CCN3CCOCC3)CC2)nc2cc(F)ccc12
**A:** 1.23

**Q:** Respond only with log10(CC50 at 120 h) recorded for Cc1cc(C#N)cc(C)c1Oc1nc(NC2CCN(CC(=O)N3CCOCC3)CC2)nc2c1SCC2
**A:** 1.59

**Q:** Respond only with log10(CC50 at 120 h) recorded for Cc1cc(C#N)cc(C)c1Oc1nc(NC2CCN(CCN3CCOCC3)CC2)nc2c1SCC2
**A:** 1.63

**Q:** Respond only with log10(CC50 at 120 h) recorded for Cc1cc(C#N)cc(C)c1Oc1nc(NC2CCN(CC(=O)N3CCOCC3)CC2)nc2sccc12
**A:** 1.56

**Q:** Respond only with log10(CC50 at 120 h) recorded for Cc1cc(C#N)cc(C)c1Oc1nc(NC2CCN(CC(=O)N3CCOCC3)CC2)nc2scnc12
**A:** 2.11

**Q:** Respond only with log10(CC50 at 120 h) recorded for Cc1cc(C#N)cc(C)c1Oc1nc(NC2CCN(CC(=O)N3CCOCC3)CC2)nc2ccsc12
**A:** 1.62

**Q:** Respond only with log10(CC50 at 120 h) recorded for Cc1cc(C#N)cc(C)c1Oc1nc(NC2CCN(CC(=O)N3CCOCC3)CC2)nc2c1COC2
**A:** 2.26

**Q:** Respond only with log10(CC50 at 120 h) recorded for Cc1cc(C#N)cc(C)c1Oc1nc(NC2CCN(CCN3CCOCC3)CC2)nc2c1CSC2
**A:** 1.45

**Q:** Respond only with log10(CC50 at 120 h) recorded for Cc1cc(C#N)cc(C)c1Oc1nc(NC2CCN(CCN3CCOCC3)CC2)nc2c1COC2
**A:** 2.15

---

Test system: Human immunodeficiency virus 1
assay_method_text: Antiviral activity against HIV1 harboring RT E138K mutant infected in human MT4 cells assessed as inhibition of virus-induced cytopathic effect incubated for 5 days by MTT assay
Assay type: functional, organism-based
measurement_setup: Human immunodeficiency virus 1, MT4, 120 h
observed_property: pEC50
// returns pEC50 (minus log10 of molar concentration), number only

**Q:** Respond only with pEC50 recorded for Cc1cc(C#N)cc(C)c1Oc1nc(NC2CCN(CC(=O)N3CCOCC3)CC2)nc2c1CCC2
**A:** 5.95

**Q:** Respond only with pEC50 recorded for Cc1cc(C#N)cc(C)c1Oc1nc(NC2CCN(CCN3CCOCC3)CC2)nc2sccc12
**A:** 6.23

**Q:** Respond only with pEC50 recorded for Cc1cc(C#N)cc(C)c1Oc1nc(NC2CCN(CCN3CCOCC3)CC2)nc2cc(F)ccc12
**A:** 6.02

**Q:** Respond only with pEC50 recorded for Cc1cc(C#N)cc(C)c1Oc1nc(Nc2ccc(C#N)cc2)nc(N)c1Br [ETRAVIRINE]
**A:** 8.15

**Q:** Respond only with pEC50 recorded for Cc1cc(C#N)cc(C)c1Oc1nc(NC2CCN(CC(=O)N3CCOCC3)CC2)nc2sccc12
**A:** 6.48

**Q:** Respond only with pEC50 recorded for Cc1cc(C#N)cc(C)c1Oc1nc(NC2CCN(CC(=O)N3CCOCC3)CC2)nc2scnc12
**A:** 6.15
